Experiment: Single oral dose pharmacokinetics in healthy human volunteers
Format: in vivo
Conditions: human, plasma; single oral dose 2 mg, median
assay readout: Tmax
Entry format: amount then unit.

Q: Look at this compound and give its reported Tmax. c1cnc2c(c1)C[C@@]1(CN3CCC1CC3)O2 [AZD0328]
A: 2.5 h

====

Experiment: Multiple dose PK/TK, dog
Type: in vivo
Conditions: both sexes, dog, in vivo, po, 34.6 mg/kg, dog 2F+2M, 0190DD, 34.6 mg/kg (160 μmol/kg) split in two 6 h apart, solution fasted, day 7
assay readout: Tmax

Q: // returns reported Tmax for input `c1cnc2c(c1)C[C@@]1(CN3CCC1CC3)O2`
A: 30 to 60 min

====

Test: Multiple dose PK/TK, dog
Type: in vivo
Conditions: male, Beagle, dog, in vivo, po, 34.6 mg/kg, dog 6M, 0295AD, 34.6 mg/kg (160 μmol/kg) split in two 6 h apart, capsules fed, day 7
assay readout: Tmax

Q: Reported Tmax for c1cnc2c(c1)C[C@@]1(CN3CCC1CC3)O2 [AZD0328] : what is it?
A: 0.5 to 7 h

====

Assay: Single dose PK/TK, rhesus monkey
Type: in vivo
Details: both sexes, plasma, im; rhesus monkey 2F+2M, A7AGBU1006, intramuscular 1.7 mg/kg (8 μmol/kg)
assay readout: Tmax
Please report the result as a number followed by the unit.

Q: Fill in the blank: the reported Tmax of `c1cnc2c(c1)C[C@@]1(CN3CCC1CC3)O2` is ____.
A: 15 min

====

Assay: Single oral dose pharmacokinetics in healthy human volunteers
Format: in vivo
Details: human, plasma; single oral dose 0.025 mg, geometric mean
Protocol: Total oral doses of AZD0328 in the range 0.025-0.68 mg produced mean plasma concentrations of 0.6-15 nM, consistent with the range of plasma concentrations found to be associated with improved performance in the spatial delayed response test in monkeys. Total oral doses of AZD0328 in the range 0.005-2 mg produced mean plasma concentrations of 0.17-43.9 nM, within the range of plasma concentrations found to be associated with improved performance in rodent models.
assay readout: AUC (nM·h)
Numbers only, in nM·h.

Q: Which measured AUC value corresponds to `c1cnc2c(c1)C[C@@]1(CN3CCC1CC3)O2` ?
A: 6.1

====

Test: Single oral dose pharmacokinetics in healthy human volunteers
Assay type: in vivo
Details: human, plasma; single oral dose 2 mg, geometric mean
assay readout: Cmax (nM)
Answers are plain numbers, in nM.

Q: Quick check: Cmax of c1cnc2c(c1)C[C@@]1(CN3CCC1CC3)O2 [AZD0328] ?
A: 43.9

====

Test: Single oral dose pharmacokinetics in healthy human volunteers
Format: in vivo
Settings: human, plasma; single oral dose 2 mg, geometric mean
assay readout: AUC(0-t) (µM·h)
Answers are plain numbers, in µM·h.

Q: Which AUC(0-t) reading was recorded for the molecule `c1cnc2c(c1)C[C@@]1(CN3CCC1CC3)O2` ?
A: 0.395

====

Target: mouse recombinant α7 receptor (Mus musculus)
Sequence (P49582 23-502): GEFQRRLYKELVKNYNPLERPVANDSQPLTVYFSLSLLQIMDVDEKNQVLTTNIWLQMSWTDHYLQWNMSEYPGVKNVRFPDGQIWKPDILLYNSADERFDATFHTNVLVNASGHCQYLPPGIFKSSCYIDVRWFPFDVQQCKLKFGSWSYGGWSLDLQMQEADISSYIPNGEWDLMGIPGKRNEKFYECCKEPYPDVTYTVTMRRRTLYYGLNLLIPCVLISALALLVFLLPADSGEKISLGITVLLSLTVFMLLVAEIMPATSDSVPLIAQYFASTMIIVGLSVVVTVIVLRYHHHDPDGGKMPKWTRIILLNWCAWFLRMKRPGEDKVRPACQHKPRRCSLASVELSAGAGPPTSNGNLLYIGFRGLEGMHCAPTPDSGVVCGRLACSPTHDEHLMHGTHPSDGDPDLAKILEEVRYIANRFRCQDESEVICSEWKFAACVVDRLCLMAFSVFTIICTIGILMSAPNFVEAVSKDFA
Test: Whole cell current, oocytes
Details: oocyte, mouse recombinant α7
From the text: In membranes prepared either from cultured, human recombinant α7 receptor-expressing, human embryonic kidney cells α7-HEK) or from rat brain hippocampus, AZD0328 competed with binding of an iodinated form of the high-affinity, selective α7 receptor antagonist snake toxin, [^125I]-α-bungarotoxin (BTX) (Table 1). In Xenopus oocytes injected with human, recombinant α7 receptor mRNA, AZD0328 activates whole cell currents (Table 2). […]
assay readout: pEC50
Answers are plain numbers, as −log10 of the molar value.

Q: pEC50 for c1cnc2c(c1)C[C@@]1(CN3CCC1CC3)O2 [AZD0328] ?
A: 6.00

====

Test: Single dose PK/TK, rhesus monkey
Assay type: in vivo
Details: both sexes, in vivo; rhesus monkey 2M+2F, 03.330/1, iv 0.385 mg/kg (1.78 μmol/kg); read-out: T½ (converted)
assay readout: half-life (h)
Numbers only, in h.

Q: Would you kindly share the measured half-life for `c1cnc2c(c1)C[C@@]1(CN3CCC1CC3)O2` ?
A: 1.76

====

Assay: Single dose PK/TK, minipig
Format: in vivo
Conditions: male, Gottingen, in vivo; minipig 3M, DMW12, iv 8.5 mg/kg (39.3 μmol/kg); read-out: Vss
assay readout: Vd (L/kg)
Give bare numbers, in L/kg.

Q: Need Vd of `c1cnc2c(c1)C[C@@]1(CN3CCC1CC3)O2` , thanks.
A: 11.1

====

Experiment: Single oral dose pharmacokinetics in healthy human volunteers
Type: in vivo
Settings: human, plasma; single oral dose 1.35 mg, geometric mean
assay readout: Cmax (nM)
One number for each entry, in nM.

Q: Cmax lookup needed for `c1cnc2c(c1)C[C@@]1(CN3CCC1CC3)O2` , thanks.
A: 31

====

Experiment: Single dose PK/TK, rat
Assay type: in vivo
Settings: male, in vivo; rat 4M, 20030191PCR, single oral 86.5 mg/kg (400 μmol/kg)
assay readout: Tmax (h)
Give bare numbers, in h.

Q: Please report the recorded Tmax for c1cnc2c(c1)C[C@@]1(CN3CCC1CC3)O2 [AZD0328] .
A: 1

====

Assay: Multiple dose PK/TK, dog
Format: in vivo
Settings: female, Beagle, dog, in vivo, po, 34.6 mg/kg, dog 6F, 0295AD, 34.6 mg/kg (160 μmol/kg) split in two 6 h apart, capsules fed, day 7
assay readout: Cmax at 7 day (ng/mL)
Answers are plain numbers, in ng/mL.

Q: What value of measured Cmax at 7 day is listed for `c1cnc2c(c1)C[C@@]1(CN3CCC1CC3)O2` ?
A: 1880

====

Assay: Single dose PK/TK, rhesus monkey
Type: in vivo
Settings: both sexes, plasma, im; rhesus monkey 2F+2M, A7AGBU1006, intramuscular 1.7 mg/kg (8 μmol/kg)
assay readout: AUC (ng·h/mL)
Give bare numbers, in ng·h/mL.

Q: Sample c1cnc2c(c1)C[C@@]1(CN3CCC1CC3)O2 [AZD0328] — what was its AUC?
A: 634

====

Assay: Multiple dose PK/TK, dog
Assay type: in vivo
Details: both sexes, dog, in vivo, po, 138 mg/kg, dog 2F+2M, 0190DD, 138 mg/kg (640 μmol/kg) split in two 6 h apart, capsules fed, day 1
assay readout: Tmax

Q: For the compound shown here, `c1cnc2c(c1)C[C@@]1(CN3CCC1CC3)O2` , give the reported Tmax.
A: 1 to 6 h

====

Assay: Multiple dose PK/TK, dog
Assay type: in vivo
Settings: female, Beagle, dog, in vivo, po, 17.3 mg/kg, dog 3F, 0295AD, 17.3 mg/kg (80 μmol/kg) split in two 6 h apart, capsules fed, day 7
Source text: This section provides a summary of the pharmacokinetic and metabolism properties of AZD0328 derived from in vivo studies. […] The derived PK/TK parameters from these studies are presented in Table 4 for single dose studies (DMR4, 0619LR, 20030191PCR, DMO16, DMB10, DMW12, 50190, 0190DD and 03.330/1), and are presented in Table 5 multiple dose PK/TK studies (DMR4, 0612AR, DMB15, 50190, 0190DD and 0295AD).
assay readout: Tmax at 7 day

Q: What measured Tmax at 7 day goes with `c1cnc2c(c1)C[C@@]1(CN3CCC1CC3)O2` ?
A: 0.5 to 6.5 h

====

Assay: Maximum tolerated dose and 7 days oral toxicity in the dog
Format: in vivo
Details: both sexes, dog, in vivo, oral; dogs, single doses of 4.5 to 17 mg/kg
assay readout: Cmax

Q: Look up Cmax: `c1cnc2c(c1)C[C@@]1(CN3CCC1CC3)O2`
A: 2.8 to 14 µM

====

Experiment: Single oral dose pharmacokinetics in healthy human volunteers
Format: in vivo
Details: human, plasma; single oral dose 0.005 mg, median
assay readout: Tmax (min)
Numbers only, in min.

Q: // Tmax lookup, key: c1cnc2c(c1)C[C@@]1(CN3CCC1CC3)O2 [AZD0328]
A: 48

====

Test: Single oral dose pharmacokinetics in healthy human volunteers
Format: in vivo
Settings: human, plasma; single oral dose 0.075 mg, median
assay readout: Tmax (h)
Give bare numbers, in h.

Q: I would be grateful if you could share the reported Tmax for c1cnc2c(c1)C[C@@]1(CN3CCC1CC3)O2 [AZD0328] .
A: 1.5

====

Assay: Single dose PK/TK, dog
Type: in vivo
Conditions: both sexes, dog, in vivo, po, 1.08 mg/kg, dog 2F+2M, 0190DD, oral 1.08 mg/kg (5 μmol/kg) split in two 6 h apart, capsules, fasted
assay readout: Tmax

Q: Please give the measured Tmax for this compound: `c1cnc2c(c1)C[C@@]1(CN3CCC1CC3)O2`
A: 1 to 3 h

====

Assay: Single oral dose pharmacokinetics in healthy human volunteers
Format: in vivo
Conditions: human, plasma; single oral dose 1.35 mg, geometric mean
assay readout: AUC
Form field: result (number plus unit)

Q: Any idea what AUC was measured for `c1cnc2c(c1)C[C@@]1(CN3CCC1CC3)O2` ?
A: 0.333 µM·h

====

Experiment: Single oral dose pharmacokinetics in healthy human volunteers
Type: in vivo
Settings: human, plasma; single oral dose 0.23 mg, geometric mean
assay readout: Cmax (nM)
Numbers only, in nM.

Q: What does the record list as Cmax for `c1cnc2c(c1)C[C@@]1(CN3CCC1CC3)O2` ?
A: 6.4
